FYI, the data here is from PubChem BioAssay AID1159580.

test.method.notes: chemical genetic growth profiling, strain panel (AID 1159580);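 note: tested at 20 µM; growth read once vehicle control cultures reached saturation at 30 °C; lower values mean less growth of the strain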
experimental.parameters: S. cerevisiae deletion strains, growth OD, locus YOR070C, strain gyp1, stronger effect = lower value
About 2,000 (36%) of roughly 5,500 compounds were called active. Not shown: some 18% with an inconclusive outcome. The list shows a part of the results. Where a SMILES comes first, the peptide text is derived from it. [ ]: non-standard residue; d: D form. Orn = NCCC[CH](N)C(=O)O
Please assign F whenever normalized growth is at or above 1, and T whenever it is below.

[
  {
    "compound": "c1ccc2c(Cc3c[nH]c4ccccc34)c[nH]c2c1",
    "class.name": "T"
  },
  {
    "compound": "COc1cc(-c2oc3cc(O)ccc3c(=O)c2O)ccc1O",
    "class.name": "T"
  },
  {
    "compound": "COc1ccc(-c2oc3ccccc3c(=O)c2O)cc1OC",
    "class.name": "T"
  },
  {
    "compound": "CC(=O)OC[C@H]1O[C@@H](Oc2cc(OC(C)=O)c3c(=O)cc(-c4ccc(OC(C)=O)cc4)oc3c2)[C@H](OC(C)=O)[C@@H](OC(C)=O)[C@@H]1OC(C)=O",
    "class.name": "F"
  },
  {
    "compound": "CC(C)CC1NC(=O)C(CCCN)NC(=O)C(C(C)C)NC(=O)C2CCCN2C(=O)C(Cc2ccccc2)NC(=O)C(CC(C)C)NC(=O)C(CCCN)NC(=O)C(C(C)C)NC(=O)C2CCCN2C(=O)C(Cc2ccccc2)NC1=O (configuration not stated) (cyclo(FPV[Orn]LFPV[Orn]L); configuration not given here)",
    "class.name": "F"
  },
  {
    "compound": "CC(=O)CC1CCCCN1 (configuration not stated)",
    "class.name": "F"
  }
]
